// reported composite z-score per item
- test summary: small-molecule microarray binders of probe aEGFR, primary screen, biochemical, biotinylated probe, 635/667 nm fluorescence (AID 1097);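 further: probe is a biotinylated anti-EGFR antibody binding compounds printed on slides; score combines fluorescence near 667 nm and signal to noise of each spot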
- details: higher = more signal
Answer as a number with no unit attached.

Worked examples follow.
>>> observed_measurement("C#C[C@@H]1Oc2ccccc2S(=O)(=O)N2CCC[C@H]12")
0.056
>>> observed_measurement("O=C1CCCC=C1C(O)CCOCc1ccccc1 (stereo not drawn)")
-0.0828
>>> observed_measurement("COc1ccc(COC(=O)NN=C2C[C@@H](O)[C@@H](O)[C@@H]3[C@@H]4C(=O)N(c5ccc(F)cc5F)C(=O)[C@@H]4CC[C@@H]23)cc1")
-0.117
>>> observed_measurement("CCOC(=O)[C@H](Cc1ccccc1)NC(=O)CCC1CC(OC(=O)NCc2ccc3c(c2)OCO3)CC2(CCCC(COC(=O)NCC(c3ccccc3)c3ccccc3)O2)O1 (stereo partly drawn)")
-0.157
>>> observed_measurement("CCOC(=O)[C@H](CC(C)C)NC(=O)CCC1CC(OC(=O)NCc2cccc3ccccc23)CC2(CCCC(COC(=O)NCCN3CCOCC3)O2)O1 (stereo partly drawn)")
-0.0828
>>> observed_measurement("NCCCCCNC(=O)[C@@H]1C[C@@H]2C(=O)N3CCC[C@H]3C(=O)N2[C@@H]1c1cccc(OCCO)c1")
0.364
>>> observed_measurement("COC(=O)[C@]1(CO)N=C(c2ccc(OCCCO)cc2)O[C@@H]1c1ccccc1N=[N+]=[N-]")
-0.162

Now turn to the next compound.
query: Reported composite z-score for `CCCC[C@@H]1C[C@H]1[C@@H](NS(=O)(=O)c1cccc2cccnc12)c1ccc(-c2ccccc2)cc1` : what is it?
result: -0.0728
